# experimental.target: human CHT (Homo sapiens, UniProt Q9GZV3, L531A/V532A)
# Sequence (Q9GZV3 whole entry L531A/V532A): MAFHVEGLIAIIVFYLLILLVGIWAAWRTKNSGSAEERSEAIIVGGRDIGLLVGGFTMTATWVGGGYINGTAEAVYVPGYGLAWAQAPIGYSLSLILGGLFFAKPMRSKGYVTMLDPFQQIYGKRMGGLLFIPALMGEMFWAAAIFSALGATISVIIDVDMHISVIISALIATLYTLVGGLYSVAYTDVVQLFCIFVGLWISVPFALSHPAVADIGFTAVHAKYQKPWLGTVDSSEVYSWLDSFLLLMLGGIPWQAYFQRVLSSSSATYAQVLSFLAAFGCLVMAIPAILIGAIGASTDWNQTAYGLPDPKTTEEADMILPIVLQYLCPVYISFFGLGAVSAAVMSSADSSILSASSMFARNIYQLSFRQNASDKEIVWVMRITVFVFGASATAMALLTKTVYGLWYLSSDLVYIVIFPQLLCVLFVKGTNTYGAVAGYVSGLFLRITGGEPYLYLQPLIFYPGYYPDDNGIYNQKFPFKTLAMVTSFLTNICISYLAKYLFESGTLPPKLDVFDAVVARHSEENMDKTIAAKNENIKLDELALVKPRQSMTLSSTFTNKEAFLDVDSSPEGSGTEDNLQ
# Format: cell-based
measure: CHT inhibitory activity

molecule	result
COc1ccc(C(=O)NCc2cc(C(C)C)no2)cc1OC1CCCCC1 [Compound 10o]	inactive
COc1ccc(C(=O)NCc2cc(C(C)C)no2)cc1O [Compound 10v]	inactive
COc1ccc(C(=O)NCc2cc(C(C)C)no2)cc1OC1CCCC1 [Compound 10p]	inactive

###

# assay.method.text: intrinsic clearance in liver microsomes
# condition.info: mouse
measure: CLint scaled (mL/min/kg)
Write the value in mL/min/kg as a bare number.

Study these solved cases before continuing.
compound	readout.units	CLint scaled
COc1ccc(C(=O)NCc2csc(C)n2)cc1OC1CCN(C(C)C)CC1 [Compound 10b]	mL/min/kg	979
COc1ccc(C(=O)NCc2cc(C(C)C)no2)cc1OC1CCN(C(C)C)CC1 [Compound 10e]	mL/min/kg	781
CCn1nc(C)c(CNC(=O)c2ccc(OC)c(OC3CCN(C(C)C)CC3)c2)c1C [Compound 10f]	mL/min/kg	29.9
COc1ccc(C(=O)NCc2cc(C(C)C)no2)cc1OC1CCN(C)CC1 [Compound 10m]	mL/min/kg	43.7
COc1ccc(C(=O)NCc2cc(C(C)C)no2)cc1OCCN1CCCCC1 [Compound 10q]	mL/min/kg	167

Documented CLint scaled of COc1ccc(C(=O)NC(C)Cc2ccccn2)cc1OC1CCN(C(C)C)CC1 (stereo not drawn) [Compound 10k] : 106
